Consider the following compounds; for each one, report its CMV-LACZ in Myotubes, signal relative to DMSO.
system: β-galactosidase in CMV-LacZ C2C12 myotubes; assay: CMV-LacZ secondary screen in C2C12 myotubes (β-Gal stabilizing assay); type: cell-based, mouse; details: 40 uM; C2C12 CMV-LacZ myotubes; fold relative to DMSO
// no unit string in output, number only

*Q* Fill in reported CMV-LACZ in Myotubes, signal relative to DMSO for this entry: Cc1cccc(NCC(=O)N/N=C\c2ccccn2)c1
*A* 0.8905

*Q* Recall and state the measured CMV-LACZ in Myotubes, signal relative to DMSO for O=C(COc1cc2oc(=O)c3c(c2cc1Cl)CCCC3)NCC1CCC(C(=O)O)CC1 (stereo not drawn) .
*A* 1.07

*Q* Give CMV-LACZ in Myotubes, signal relative to DMSO for the following compound: COc1ccc(C(=O)Cn2nnc(-c3ccccc3NC(=O)c3ccco3)n2)cc1
*A* 1.0653

*Q* Supply recorded CMV-LACZ in Myotubes, signal relative to DMSO for O=C(O)CC1(c2ccccc2)C(=O)c2ccccc2C1=O here.
*A* 0.9726

*Q* Provide only the value of recorded CMV-LACZ in Myotubes, signal relative to DMSO for O=C(Nc1ccccc1F)c1ccc([N+](=O)[O-])s1
*A* 0.769

*Q* Give me measured CMV-LACZ in Myotubes, signal relative to DMSO, please, for this compound: Cc1ccc(NC(=O)COc2ccccc2CNC(C)(C)CC(C)(C)C)cc1
*A* 0.2705

*Q* Give CMV-LACZ in Myotubes, signal relative to DMSO for the following compound: Cc1cccn2c(=O)c3cc(C(=O)NC4CCCCC4)n(C)c3nc12
*A* 0.8952

*Q* Answer with reported CMV-LACZ in Myotubes, signal relative to DMSO of CC1(C)CC(=O)C=C(Nc2ccc(C(=O)O)c(O)c2)C1
*A* 1.112

*Q* Annotate the compound NC(=O)c1cccnc1Oc1ccc(Cl)cc1Cl with its measured CMV-LACZ in Myotubes, signal relative to DMSO.
*A* 0.8381
